- Tested on: Peripheral Blood Mononuclear cells (PBMC)
- TEST DESCRIPTION: in vitro
- EXPERIMENTAL PARAMETERS: human, 24 h
MEASURE NAME: CC50 (µM)
Numbers only, in µM.

Request: CC50 for "CCCC/C=C\CCCCCCCC(=O)O" ?
Response: 71.9

###

- System: Candida albicans SC5314 strain
- TEST DESCRIPTION: Germination inhibition assay (antihyphal growth activity)
- Type: cell-based
- EXPERIMENTAL PARAMETERS: commercial free fatty acids; complete inhibition of germination, 15 h, 37° C.; gravimetrical quantification; read-out: MIC, antihyphal growth activity of individual free fatty acids
Hi there, I'd appreciate the recorded MIC for every entry that follows.
Answers are plain numbers, in µM.

{"CHEMICAL STRING": "CCCCCC/C=C\\CCCCCCCC(=O)O", "SYSTEM TESTED": "Candida albicans SC5314 strain", "RESULT UNITS": "µM", "MEAS VALUE": 9}

Kindly give each listed record's MIC.
1. CCCCC/C=C\C/C=C\CCCCCCCC(=O)O
2. CCCCCCCCCCCC(=O)O
3. CCCC/C=C\CCCCCCCC(=O)O
4. CCCCC/C=C\C/C=C\C/C=C\C/C=C\CCCC(=O)O

Response:
[81, 9, 9, 27]

###

- Test system: Candida albicans SC5314 strain
- TEST DESCRIPTION: Germination inhibition assay (antihyphal growth activity)
- Assay type: cell-based
- EXPERIMENTAL PARAMETERS: Candida albicans, SC5314; commercial free fatty acids; complete inhibition of germination, 15 h, 37° C.; gravimetrical quantification; read-out: MIC, antihyphal growth activity of individual free fatty acids
- Protocol: The Candida albicans SC5314 strain (Fonzi, W. A. and Irwin, M. Y. 1993. Isogenic strain construction and gene mapping in Candida albicans. Genetics 134: 717-728.) was used to investigate the antihyphal activity of whey cream lipids. This strain was routinely grown as yeast cells at 30° C. in YPD medium (1% yeast extract, 2% peptone, 2% dextrose). […] The ability of lipids to inhibit germination was determined by microscopic observations.
Hi there, I'd appreciate the recorded MIC for every entry that follows.
Numbers only, in µM.

{"CHEMICAL STRING": "CCCC/C=C\\CCCCCCCC(=O)O", "MEAS VALUE": 9}

// next entry
Request: MIC for "CCCCC/C=C\C/C=C\C/C=C\C/C=C\CCCC(=O)O" ?
Response: 27

###

- System: C. albicans SC5314 strain
- TEST DESCRIPTION: Antifungal assay against C. albicans (optical density at 630 nm)
- Assay type: cell-based, Candida albicans
- EXPERIMENTAL PARAMETERS: Candida albicans, SC5314, 40 h, dextrose-free Sabouraud, 37° C., commercial FFA
MEASURE NAME: pIC50
Numbers only, as −log10 of the molar value.

Reference set, count: 2
{"CHEMICAL STRING": "CCCCC/C=C\\C/C=C\\C/C=C\\CCCCC(=O)O", "MEASURE NAME": "pIC50", "MEAS VALUE": 5.63}
{"CHEMICAL STRING": "CCCCCCCCCC(=O)O", "MEASURE NAME": "pIC50", "MEAS VALUE": 3.74}

// next entry
Request: For the record "CCCC/C=C\CCCCCCCC(=O)O" , what value of pIC50 is listed for C. albicans SC5314 strain?
Response: 4.09

Provenance of the data: patent US20080075786A1
